- System: Bromodomain-containing protein 4 (Homo sapiens)
- Protocol: Inhibition of BRD4 bromodomain 2 (unknown origin) in HEK293 cells cotransfected with eGFP by flow cytometry based mCherry reporter gene analysis

{"Compound": "O=C1CCC(N2Cc3c(NC(=O)CNc4ccnc(N5CCN(c6cccc(C(F)(F)F)c6)CC5)n4)cccc3C2=O)C(=O)N1 (stereo not given)", "Unit": "µM", "IC50": 0.517}
{"Compound": "CN(c1ccccc1)c1nccc(NCC(=O)Nc2cccc3c2CN(C2CCC(=O)NC2=O)C3=O)n1 (stereo not given)", "Unit": "µM", "IC50": 3.44}
{"Compound": "Nc1ccc(C(=O)NC2CCC(=O)NC2=O)c2ncccc12 (stereo not given)", "Unit": "µM", "IC50": 2.9}
{"Compound": "Nc1ccnc2c(C(=O)NC3CCC(=O)NC3=O)cccc12 (stereo not given)", "Unit": "µM", "IC50": 7.7}
{"Compound": "O=C1CCC(N2Cc3c(NC(=O)CNc4ccnc(N5CCC[C@@H]5CO)n4)cccc3C2=O)C(=O)N1 (stereo not given in full)", "Unit": "µM", "IC50": 1.6}
